system: CCRIS mutagenicity, Ames/micronucleus/aberration tests; test: CCRIS mutagenicity studies; settings: Test System: CHINESE HAMSTER V-79; Strain/Indicator: V-79/OUABAIN; Metabolic Activation: NONE
Active and inactive are the calls of the source. The rule behind the calls is not given here.
Valid outcomes are listed here; reply with one: 1 (yes) (active), 0 (no) (inactive)

CCCN(CO)N=O	1 (yes)
Cc1c(N(C)C)c(=O)n(-c2ccccc2)n1C	0 (no)
Cc1ccccc1N	0 (no)
CC(CN1c2ccccc2Sc2ccccc21)N(C)C (stereo not given)	0 (no)

Now take the following compound into account.
I'd appreciate the recorded outcome for CN(CO)N=O from this test. 1 (yes)

----------
tested on: CCRIS mutagenicity, Ames/micronucleus/aberration tests; experiment: CCRIS mutagenicity studies; settings: Test System: AMES SALMONELLA TYPHIMURIUM; Strain/Indicator: TA98; Metabolic Activation: RAT, LIVER, S-9, PHENOBARBITAL; Method: STANDARD PLATE
Calls of active or inactive are those of the source. No rule for the calls is given here.
Bench note: report the call from TRUE = active, FALSE = inactive

Nc1cc(S(=O)(=O)O)cc2c1C(=O)/C(=N/Nc1ccc(-c3ccc(N/N=C4/C(=O)c5c(N)cc(S(=O)(=O)O)cc5C=C4S(=O)(=O)O)cc3)cc1)C(S(=O)(=O)O)=C2	FALSE
[Zn]	FALSE
O=[N+]([O-])c1cccc2[nH]c3ccccc3c12	TRUE

Kindly provide the recorded test outcome for the following compound: COc1cc2nc3occc3c(OC)c2cc1OC TRUE

Which result was noted for this compound in the test: N=C(N)c1ccc2c(N)c(C(=N)N)[nH]c2c1 FALSE

Tell me the recorded outcome of this test for Cl . FALSE

Which outcome was assigned to O=C/C(=C(/Cl)C(=O)O)C(Cl)Cl in this test? FALSE

Name the outcome recorded for O=c1c(O)c(-c2ccc(O)c(O)c2)oc2cc(O)cc(O)c12 in the assay. TRUE

Called result for COc1c2ccoc2cc2oc(=O)ccc12 FALSE

----------
test system: CCRIS mutagenicity, Ames/micronucleus/aberration tests; experiment: CCRIS mutagenicity studies; settings: Test System: AMES SALMONELLA TYPHIMURIUM; Strain/Indicator: TA100; Metabolic Activation: RAT, LIVER, S-9, AROCLOR 1254; Method: STANDARD PLATE
Active and inactive are the calls of the source. No rule for the calls is given here.
Field 'call' accepts TRUE (active), FALSE (inactive)

These solved cases illustrate the format of a correct answer.
Cc1ccc2c(c1)C(C)c1cc(C)ccc1-2	FALSE
CC1=Cc2nc3c(ccc4ccccc43)c(C)c2[C@H](O)[C@H]1O	TRUE
CCN(CC[N+](C)(C)C)c1ccc(N=Nc2ccc([N+](=O)[O-])cc2Cl)cc1	TRUE

Please state the recorded outcome for this compound: C1CCC2OCCOCCOCCOC3CCCCC3OCCOCCOCCOC2C1 (configuration not stated) FALSE

GET /call?item= C1CC[C@H]2O[C@H]2C1 returns the recorded outcome of this test. TRUE

Dear colleague, could you share the recorded outcome for N[C@@H](Cc1ccccc1)C(=O)O when you have a moment? FALSE

----------
test system: CCRIS mutagenicity, Ames/micronucleus/aberration tests; test: CCRIS mutagenicity studies; details: Test System: AMES SALMONELLA TYPHIMURIUM; Strain/Indicator: TA1535; Metabolic Activation: NONE; Method: PREINCUBATION
Calls of active or inactive are those of the source. No rule for the calls is given here.
reported endpoint: mutagenic call

COC(=O)CC(=O)OC	inactive; negative
CCCCCCCCCCCCOS(=O)(=O)O	inactive; negative
Cc1ccc(C#N)cc1	inactive; negative

These entries and their values trace back to PubChem BioAssay AID1259407.
